This section presents proteins with their documented kcat/Km values.
Substrate: CC(=O)Oc1ccc([N+](=O)[O-])cc1
Experiment: purified protein
Assay type: biochemical, Dorea formicigenerans
Conditions: 10 mM Tris-HCl pH 8.4, 2.5% Triton X-100, 40 °C

PROTEIN	kcat/Km / M⁻¹ s⁻¹
DfFAE (Dorea formicigenerans; P186A) (protein, E. coli T7; trimeric by SEC (117 kDa)) MNQKKECMDVHVNGLKFHVQTFGSGVPIIMIMGLGAPGDKWKHNYELLSKWFWCIVPDNRGAGLSDKPEAESYTTEQMADDIIGIMDALDIKKAHVMGVSMGGAIAQQVALKVPDRVLSLILTSTFASVSPAFKKALNLICELKEDTDPAVLKQLNLWMTYGQYTQIHHPEKIEKSIEEDAAYPYAMPVYAYKAQCGACLSHNTAGRLHELKMPVLIAAGAKDLFMNIEKTMELVHGIPQAEFYLAPEGGHVHQWEYPEPYDSVVVGFLMKHTN	13700
DfFAE (Dorea formicigenerans; W255A) (protein, E. coli T7; trimeric by SEC (117 kDa)) MNQKKECMDVHVNGLKFHVQTFGSGVPIIMIMGLGAPGDKWKHNYELLSKWFWCIVPDNRGAGLSDKPEAESYTTEQMADDIIGIMDALDIKKAHVMGVSMGGAIAQQVALKVPDRVLSLILTSTFASVSPAFKKALNLICELKEDTDPAVLKQLNLWMTYGQYTQIHHPEKIEKSIEEDAAYPYPMPVYAYKAQCGACLSHNTAGRLHELKMPVLIAAGAKDLFMNIEKTMELVHGIPQAEFYLAPEGGHVHQAEYPEPYDSVVVGFLMKHTN	14900
DfFAE (Dorea formicigenerans; V252A) (protein, E. coli T7; trimeric by SEC (117 kDa)) MNQKKECMDVHVNGLKFHVQTFGSGVPIIMIMGLGAPGDKWKHNYELLSKWFWCIVPDNRGAGLSDKPEAESYTTEQMADDIIGIMDALDIKKAHVMGVSMGGAIAQQVALKVPDRVLSLILTSTFASVSPAFKKALNLICELKEDTDPAVLKQLNLWMTYGQYTQIHHPEKIEKSIEEDAAYPYPMPVYAYKAQCGACLSHNTAGRLHELKMPVLIAAGAKDLFMNIEKTMELVHGIPQAEFYLAPEGGHAHQWEYPEPYDSVVVGFLMKHTN	44100
DfFAE (Dorea formicigenerans) (protein, E. coli T7; trimeric by SEC (117 kDa)) MNQKKECMDVHVNGLKFHVQTFGSGVPIIMIMGLGAPGDKWKHNYELLSKWFWCIVPDNRGAGLSDKPEAESYTTEQMADDIIGIMDALDIKKAHVMGVSMGGAIAQQVALKVPDRVLSLILTSTFASVSPAFKKALNLICELKEDTDPAVLKQLNLWMTYGQYTQIHHPEKIEKSIEEDAAYPYPMPVYAYKAQCGACLSHNTAGRLHELKMPVLIAAGAKDLFMNIEKTMELVHGIPQAEFYLAPEGGHVHQWEYPEPYDSVVVGFLMKHTN	7730
DfFAE (Dorea formicigenerans; P149A) (protein, E. coli T7; trimeric by SEC (117 kDa)) MNQKKECMDVHVNGLKFHVQTFGSGVPIIMIMGLGAPGDKWKHNYELLSKWFWCIVPDNRGAGLSDKPEAESYTTEQMADDIIGIMDALDIKKAHVMGVSMGGAIAQQVALKVPDRVLSLILTSTFASVSPAFKKALNLICELKEDTDAAVLKQLNLWMTYGQYTQIHHPEKIEKSIEEDAAYPYPMPVYAYKAQCGACLSHNTAGRLHELKMPVLIAAGAKDLFMNIEKTMELVHGIPQAEFYLAPEGGHVHQWEYPEPYDSVVVGFLMKHTN	21700

Source: paper PMC9251316
